Test system: C57BL/6 mice, intracerebral ependymoblastoma, median survival T/C
assayMethodText: NCI In Vivo Anticancer Drug Screen. Data for tumor model Ependymoblastoma (intracerebral) in C57BL/6 mice
testContext: endpoint: median survival time; dose: 8.0 mg/kg/injection; schedule: Q01DX005 (ip); vehicle: saline; higher = longer survival
Toxic doses and inconclusive results are not listed.
Attribute: T/C

>  <compound>
OC(CBr)C(O)C(O)C(O)CBr (configuration not stated)

>  <T/C>
101 % of control

$$$$
>  <compound>
N[C@@H](Cc1ccc(N(CCCl)CCCl)cc1)C(=O)O

>  <T/C>
100 % of control

$$$$
>  <compound>
CCN(CC)CCNc1ccc(CO)c2sc3ccccc3c(=O)c12

>  <T/C>
104 % of control

$$$$
>  <compound>
CCN(CC)c1ccc2cc3ccc(=[N+](CC)CC)cc-3oc2c1

>  <T/C>
107 % of control

$$$$
>  <compound>
CC/C(=C(/CC)c1ccc(O)cc1)c1ccc(O)cc1

>  <T/C>
94 % of control

$$$$
>  <compound>
CCN(CC)CCCC(C)Nc1c2ccc(Cl)cc2nc2ccc(OC)cc12 (configuration not stated)

>  <T/C>
104 % of control

$$$$
>  <compound>
O=c1[nH]cc(F)c(=O)[nH]1

>  <T/C>
97 % of control

$$$$

* * *

Test system: C57BL/6 mice, intracerebral ependymoblastoma, median survival T/C
assayMethodText: NCI In Vivo Anticancer Drug Screen. Data for tumor model Ependymoblastoma (intracerebral) in C57BL/6 mice
testContext: endpoint: median survival time; dose: 8.0 mg/kg/injection; schedule: Q01DX001 (ip); vehicle: Klucel (hydroxypropylcellulose) (HPC); higher = longer survival
Description: The antitumor activity of compounds was measured in mice bearing transplantable tumors. Survival or tumor size were measured and the results are expressed as the measurement made in the treated group (T) divided by the measurement made in the vehicle treated control group (C). The tumor model used in this assay is Ependymoblastoma (intracerebral) in C57BL/6 mice
Toxic doses and inconclusive results are not listed.
metric: T/C

>  <molecule>
O=NN(CCCl)C(=O)NC1CCCCC1

>  <targetSystem>
C57BL/6 mice, intracerebral ependymoblastoma, median survival T/C

>  <result>
106 % of control

$$$$
>  <molecule>
O=NN(CCCl)C(=O)NCCCl

>  <targetSystem>
C57BL/6 mice, intracerebral ependymoblastoma, median survival T/C

>  <result>
115 % of control

$$$$
>  <molecule>
O=C1c2ccccc2C(=O)c2c(NCCNCCO)ccc(NCCNCCO)c21

>  <targetSystem>
C57BL/6 mice, intracerebral ependymoblastoma, median survival T/C

>  <result>
95 % of control

$$$$
>  <molecule>
O=CC(NC(=O)N(CCCl)N=O)C(O)C(O)C(O)CO (stereo unspecified)

>  <targetSystem>
C57BL/6 mice, intracerebral ependymoblastoma, median survival T/C

>  <result>
96 % of control

$$$$
>  <molecule>
O=C(O)CCCc1ccc(N(CCCl)CCCl)cc1

>  <targetSystem>
C57BL/6 mice, intracerebral ependymoblastoma, median survival T/C

>  <result>
105 % of control

$$$$
>  <molecule>
CC(CN1CC(=O)NC(=O)C1)N1CC(=O)NC(=O)C1 (stereo unspecified)

>  <targetSystem>
C57BL/6 mice, intracerebral ependymoblastoma, median survival T/C

>  <result>
116 % of control

$$$$
